pIC50: −log10 of the molar value.
Reported pIC50 against UniProtKB Q92918, gathered from multiple publications, appears below.
measurement-name: pIC50

Cc1cccc(F)c1-n1nc2c(-c3ccc4c(c3)CN3CCOC[C@@H]3C4)n[nH]c2cc1=O ... 6.30 to 7.30
O=C1NCc2c(-c3ccncc3)ncc(Nc3ccc(N4CCOCC4)cn3)c21 ... 5.30 to 6.00
CC(Oc1ccc(Nc2ccc(-c3cnc4cnccn34)c3c2C(=O)NC3)nc1CN(C)C)C1CC(F)(F)C1 (stereo not drawn) ... ≥ 7.00
CN1CC(C(O)c2ccc(-c3c[nH]c4ncc(-c5ccc6c(c5)OCC5CN(C)CCN65)cc34)cc2)C1 (stereo not drawn) ... ≥ 8.00
C[C@H]1CN([C@@H](C)c2ccc(Nc3ccc(-c4cnc5cc(F)ccn45)c4c3C(=O)NC4)nc2)CCO1 ... > 7.00
CN1CCC[C@H](c2cccc(Nc3cnc(-c4ccnc5c4ccn5C)c4c3C(=O)NC4)n2)C1 ... < 6.00

###

Reported pIC50 against HPK1 (Homo sapiens (Human)), gathered from multiple publications, appears below.
pIC50: −log10 of the molar value.
measurement-name: pIC50

C/C(Nc1ccn([C@H](C)CO)n1)=C1/C(=O)Nc2cnc(-c3cnccc3C)cc21 ... > 7.30
Cc1cc(-c2c[nH]c3ncc(-c4cc(C)c5c(c4)CN(CCC(=O)NCC4CC4)CC5)nc23)ccc1C(=O)N(C)C ... 7.05
COc1cccc(F)c1-c1cccc(C(=O)Nc2ccc3c(cnn3C)c2N2C[C@H]3C[C@@H]2CN3)[n+]1[O-] ... > 7.00
CC(C)n1ncc2c(N3C[C@H](N)C4(CC4)C3)c(NC(=O)c3ccc(=O)n(-c4c(F)cccc4F)n3)ccc21 ... > 7.00
COc1cc2c(cc1Nc1ncc3ccc(Nc4cc(S(C)(=O)=O)ccc4F)cc3n1)CN(C)CC2 ... 8.38
O=C1NCc2c(-c3cnc4cc(F)ccn34)ccc(Nc3ccc(N4CCCC5(CNCCO5)C4)cn3)c21 (stereo not drawn) ... > 7.00
C[C@H]1COCCN1c1ccc(Nc2ccc(-c3cnc4cc(F)ccn34)c3c2C(=O)NC3)nc1CN(C)C ... > 7.00
O=c1[nH]ccc2nc(-c3cc4c(cc3F)CCC4N3CCCCC3)cc(Nc3ccc(N4CCC(O)CC4)cn3)c12 (stereo not drawn) ... ≥ 7.00
CN1CCN2c3ccc(-c4n[nH]c5cc(C#N)c(-c6c(F)cc(C(=O)N7CC(N(C)C)C7)cc6F)cc45)cc3OCC2C1 (stereo not drawn) ... ≥ 8.00
C[C@@H]1CN(c2c(NC(=O)c3ccc(=O)n(-c4c(F)cccc4F)n3)ccc3c2cnn3[C@@H]2CCOC2)C[C@@H]1N ... > 7.00
COc1cc(C#N)cc(F)c1-n1nc2c(-c3ccc4c(c3)CN(C)CC4)n[nH]c2cc1=O ... ≥ 7.30
COc1cc2c(cc1Nc1ncc3ccc(N4C(=O)OCC4(C)C)cc3n1)CN(C)CC2 ... 7.34
O=C1NCc2c(-c3cccn4ccnc34)ncc(Nc3ccc(N4CCC(O)CC4)cn3)c21 ... < 6.00
Cc1cccc2c(-c3ccc(Nc4ccc(N5CCC(O)CC5)cn4)c4c3CNC4=O)cnn12 ... > 7.00
CN(C)Cc1nc(Nc2ccc(-c3cnc4cc(F)ccn34)c3c2C(=O)NC3)ccc1N1CCOC[C@H](O)C1 (single isomer, unassigned) ... > 7.00
